Conditions: buffer; pH 7.4; 200.0 µM
Readout name: solubility kinetic (µg/mL)
API: value field is a number in µg/mL; no unit string.

Fill blank: measured solubility kinetic of the compound Cc1ccc(C(=O)N2CCN(c3ncccn3)CC2)c(C)c1 is ____.
27.5

Next entry: CC1CCCCC1NC(=O)CSc1nc2ccccc2[nH]1 (stereo not given)
37.5

Next entry: Cc1cccc2cc(/C=C/C(=O)c3ccco3)c(Cl)nc12
3.9

Next entry: CCOC(=O)/C(C#N)=C1/C=C(C)c2ccccc2N1
0.4

Next entry: Cc1ccc2c(CN3CCCCC3C)cc(=O)oc2c1C.Cl (stereo not given)
20.9

Next entry: COc1ccc(-n2c(C)cc(/C=C3\SC(=O)NC3=O)c2C)cc1
3.9

Next entry: COc1ccc(CNc2ccc3c(c2)CCC3)cc1Br
5.6

Next entry: COc1ccc(/C=C/C(=O)NC(=S)Nc2ccccn2)cc1
1.8

Next entry: COc1ccc(S(=O)(=O)Nc2ccc(Nc3ccccc3)cc2)cc1
4.7

====

Conditions: buffer; pH 7.4; 200.0 µM
Readout name: solubility kinetic (µg/mL)
API: value field is a number in µg/mL; no unit string.

Fill blank: measured solubility kinetic of the molecule COC(=O)c1c(C)[nH]c(C(=O)OCc2csc(CC(=O)Nc3ccccc3C)n2)c1C is ____.
7.4

Next entry: CC(=O)c1c(O)c2ccccc2n(C(C)C)c1=O
29.7

Next entry: CCCC(=O)Nc1ccc2c(c1)Cc1ccccc1-2
1.5

Next entry: COC(=O)c1ccc(N2CCN(c3ccccc3)CC2)nc1
1.7

Next entry: Cc1ccc(N2C(=O)CC(C)(C)CC2=O)cc1Cl
12.5

Next entry: COc1ccc(CNC(=O)C2CCCN2C)cc1OC (centres undefined)
37

Next entry: CCOC(=O)c1ccc(Nc2ncnc3ccccc23)cc1.Cl
1.7

Next entry: Cc1cccc(NC(=O)c2cc(Cl)nc3ccccc23)n1
19.9

Next entry: CCCn1c(N)c(N2CCCCC2)c(=O)n(CC(=O)Nc2ccc(C(C)=O)cc2)c1=O
14.8

Next entry: CCN(Cc1ccccc1)C(=O)COC(=O)c1cc(S(=O)(=O)Nc2ccccc2OC)ccc1O
6

====

Details: buffer; pH 7.4; 200.0 µM
Readout name: solubility kinetic

Fill blank: measured solubility kinetic of the molecule Cl.O=C(O)C1=CCNCC1 is ____.
> 24.5 µg/mL

Next entry: CS(=O)(=O)N1CCCC(C(=O)c2cccc(Cl)c2)C1 (stereo not drawn)
> 45.3 µg/mL

Next entry: CC1=NC(C)(C)Cc2cc(C)c(C)cc21.Cl
> 35.7 µg/mL

====

Conditions: buffer; pH 7.4; 200.0 µM
Would you mind telling me the reported solubility kinetic of each entry?

Fill blank: measured solubility kinetic of the compound CN(C(=S)NC(=O)C12CC3CC(CC(C3)C1)C2)c1ccc(O)cc1 is ____.
45.8 µg/mL

Next entry: CCOC(=O)c1c(SC)[nH]c2c(Cl)cccc2c1=O
1.4 µg/mL

Next entry: Cc1c(C(=O)O)[nH]c2c1C(=O)CC(c1ccc(C(C)(C)C)cc1)C2 (configuration not stated)
> 48.8 µg/mL

Next entry: O=C(COC(=O)c1ccc(F)cc1)Nc1ccc(Cl)cn1
0.8 µg/mL

Next entry: CC(=O)N1CCN=C1SCc1cccc(Cl)c1
> 40.3 µg/mL

Next entry: CCOc1ccccc1-n1c(C)cc(C=O)c1C
> 36.5 µg/mL

Next entry: Cc1nc(NC(=O)C2CC2)sc1C(=O)Nc1cccc(Cl)c1
0.8 µg/mL
